Tested on: Mus musculus
PROTOCOL DESCRIPTION: Effective dose against tetrabenazine induced ptosis in mice administered orally
Type: functional
MEASUREMENT CONDITIONS: Mus musculus, po; read-out: ED50
hey, just use T if measured ED50 is less than 3 mg/kg, otherwise F

# example entries with known answers
| COMPOUND | CLASS NAME |
| --- | --- |
| CN1CCC(N2C(=O)CN=C(c3ccccc3F)c3cc(Cl)ccc32)CC1 | T |
| CN(C)CCCN1c2ccccc2CCc2ccccc21 | T |
| CN1CCC(N2C(=O)CN=C(c3ccccc3Cl)c3cc(Cl)ccc32)CC1 | F |

Please let me know if `CN1CCC(N2C(=O)CN=C(c3ccccc3)c3cc(Cl)ccc32)CC1` shows ED50 below 3 mg/kg.
T

Record: O=C1C(O)N=C(c2ccccc2F)c2cc(Cl)ccc2N1C1CCNCC1 (stereo not drawn)
F

Record: `O=C1CN=C(c2ccccc2Cl)c2cc(Cl)ccc2N1C1CCNCC1`
F

Record: `CN1CCC(N2C(=O)CN=C(c3ccccc3)c3ccccc32)CC1`
T

Record: `O=C1CN=C(c2ccccc2)c2cc(F)ccc2N1C1CCNCC1`
T

Record: CN1CCC(N2C(=O)C(O)N=C(c3ccccc3F)c3cc(Cl)ccc32)CC1 (stereo not drawn)
F

Record: CN1CCC(N2C(=O)CN=C(c3ccccc3F)c3cc(Cl)ccc32)C1 (stereo not drawn)
F

Record: `CN1CCC(N2C(=O)CN=C(c3ccccc3)c3cc(F)ccc32)CC1`
T

Record: `O=C1CN=C(c2ccccc2Cl)c2cc(F)ccc2N1C1CCNCC1`
F

Record: `O=C1CN=C(c2ccccc2)c2ccccc2N1C1CCNCC1`
T

Record: `CN1CCC(N2C(=O)CN=C(c3ccccc3Cl)c3cc(F)ccc32)CC1`
F

Record: `O=C1CN=C(c2ccccc2)c2cc(Cl)ccc2N1C1CCNCC1`
T

Record: `CN1CCC(N2C(=O)CN=C(c3ccccc3F)c3cc(Br)ccc32)CC1`
F

Record: `CN1CCC(N2C(=O)CN=C(c3ccccc3F)c3cc(F)ccc32)CC1`
T

Record: `O=C1CN=C(c2ccccc2)c2cc(Br)ccc2N1C1CCNCC1`
T

Record: CNC1=Nc2ccc(Cl)cc2C(c2ccccc2)=[N+]([O-])C1 [CHLORDIAZEPOXIDE]
T

Record: `CN1CCC(N2C(=O)CN=C(c3ccccc3)c3cc(Br)ccc32)CC1`
T

Record: `O=C1CN=C(c2ccccc2F)c2cc(Cl)ccc2N1C1CCNCC1`
T

Record: `O=C1CN=C(c2ccccc2F)c2cc(Br)ccc2N1C1CCNCC1`
F

Record: `O=C1CN=C(c2ccccc2F)c2cc(F)ccc2N1C1CCNCC1`
T

###

Tested on: Mus musculus
PROTOCOL DESCRIPTION: Effective dose against pentylenetetrazole intoxicity in mice administered orally
Assay type: functional
MEASUREMENT CONDITIONS: Mus musculus, po; read-out: ED50
RECORDED METRIC: ED50 (mg/kg)
// note: answer is a bare numeric in mg/kg

| COMPOUND | ED50 [mg/kg] |
| --- | --- |
| CN1CCC(N2C(=O)CN=C(c3ccccc3Cl)c3cc(Cl)ccc32)C1 (stereo not drawn) | 5.78 |

# returns recorded ED50 (system: Mus musculus) for O=C1CN=C(c2ccccc2Cl)c2cc(Cl)ccc2N1C1CCNC1 (stereo not drawn)
9.63

Record: O=C1C(O)N=C(c2ccccc2F)c2cc(Cl)ccc2N1C1CCNCC1 (stereo not drawn)
12.5

###

Test system: Mus musculus
PROTOCOL DESCRIPTION: Effective dose against pentylenetetrazole intoxicity in mice administered orally
Format: functional
MEASUREMENT CONDITIONS: Mus musculus, po; read-out: ED50
Let's look at some compounds and their measured ED50.

Reference set (5 entries):
| COMPOUND | MEASURED ON | ED50 |
| --- | --- | --- |
| O=C1CN=C(c2ccccc2F)c2cc(Cl)ccc2N1C1CCNC1 (configuration not stated) | Mus musculus | 20.1 mg/kg |
| CN1CCC(N2C(=O)CN=C(c3ccccc3F)c3cc(Cl)ccc32)CC1 | Mus musculus | 2.7 mg/kg |
| CN1CCCC(N2C(=O)CN=C(c3ccccc3Cl)c3cc(Cl)ccc32)C1 (configuration not stated) | Mus musculus | 12 mg/kg |
| CCOC(=O)N1CCC(N2C(=O)CN=C(c3ccccc3Cl)c3cc(Cl)ccc32)CC1 | Mus musculus | 1.95 mg/kg |
| CN1CCC(N2C(=O)CN=C(c3ccccc3F)c3cc(Cl)ccc32)C1 (configuration not stated) | Mus musculus | 1.1 mg/kg |

What ED50 value was documented for this compound, `CN1CCC(N2C(=O)CN=C(c3ccccc3F)c3cc(Br)ccc32)CC1` ?
1.61 mg/kg

Record: `CN1CCC(N2C(=O)CN=C(c3ccccc3)c3cc(Br)ccc32)CC1`
21.4 mg/kg

Record: O=C1CN=C(c2ccccc2F)c2cc(Cl)ccc2N1C1CCN(Cc2ccccc2)C1 (configuration not stated)
1.52 mg/kg

Record: `CN1CCC(N2C(=O)CN=C(c3ccccc3)c3cc(Cl)ccc32)CC1`
29.9 mg/kg

Record: `CN1CCC(N2C(=O)CN=C(c3ccccc3Cl)c3cc(Cl)ccc32)CC1`
3.24 mg/kg

Record: `O=C1CN=C(c2ccccc2F)c2cc(F)ccc2N1C1CCNCC1`
32.1 mg/kg

Record: CN1CCC(N2C(=O)C(O)N=C(c3ccccc3F)c3cc(Cl)ccc32)CC1 (configuration not stated)
2.41 mg/kg

Record: `O=C1CN=C(c2ccccc2Cl)c2cc(F)ccc2N1C1CCNCC1`
29.4 mg/kg

Record: `CCOC(=O)N1CCC(N2C(=O)CN=C(c3ccccc3F)c3cc(Cl)ccc32)CC1`
9.09 mg/kg

Record: `O=C1CN=C(c2ccccc2Cl)c2cc(Cl)ccc2N1C1CCNCC1`
12.9 mg/kg

Record: `O=C1CN=C(c2ccccc2)c2cc(Br)ccc2N1C1CCNCC1`
38.8 mg/kg

Record: `O=C1CN=C(c2ccccc2F)c2cc(Cl)ccc2N1C1CCNCC1`
14.2 mg/kg

Record: `CN1CCC(N2C(=O)CN=C(c3ccccc3)c3cc(F)ccc32)CC1`
30 mg/kg

###

MEASURED ON: GABA-A receptor; anion channel (Rattus norvegicus) (UniProt O09028+P15431+P18506+P18508+P19969+P20236+P23574+P23576+P28471+P28473+P30191+P62813+P63079+P63138+Q91ZM7+Q9ES14)
PROTOCOL DESCRIPTION: Binding constant was determined by displacing potential to [3H]-diazepam binding in cerebral cortex homogenates of rat
Format: tissue-based
Let's look at some compounds and their measured K2.
// note: answer is a bare numeric in µM

What K2 value was documented for this compound, O=C1CN=C(c2ccccc2F)c2cc(Cl)ccc2N1C1CCNC1 (configuration not stated) ?
0.73

Record: O=C1C(O)N=C(c2ccccc2F)c2cc(Cl)ccc2N1C1CCNCC1 (configuration not stated)
0.14

Record: `CCOC(=O)N1CCC(N2C(=O)CN=C(c3ccccc3)c3ccccc32)CC1`
2.3

Record: `CN1CCC(N2C(=O)CN=C(c3ccccc3F)c3ccc(C(F)(F)F)cc32)CC1`
17

###

MEASURED ON: GABA-A receptor; anion channel (Rattus norvegicus) (UniProt O09028+P15431+P18506+P18508+P19969+P20236+P23574+P23576+P28471+P28473+P30191+P62813+P63079+P63138+Q91ZM7+Q9ES14)
PROTOCOL DESCRIPTION: Binding constant was determined by displacing potential to [3H]-diazepam binding in cerebral cortex homogenates of rat
Assay type: tissue-based
Heads up, the class ranges for K2 are LOW (below 0.2 µM), MID (0.2 µM to below 0.4 µM), HIGH (0.4 µM or more)

# example entries with known answers
| COMPOUND | CLASS NAME |
| --- | --- |
| O=C1C(O)N=C(c2ccccc2F)c2ccccc2N1C1CCNCC1 (stereo unspecified) | MID |
| CN1CCC(N2C(=O)CN=C(c3ccccc3F)c3cccc(Cl)c32)CC1 | HIGH |
| Cc1ccc2c(c1)C(c1ccccc1F)=NCC(=O)N2C1CCN(C)CC1 | MID |
| O=C1CN=C(c2ccccc2F)c2cc(Br)ccc2N1C1CCNCC1 | LOW |
| O=C1CN=C(c2ccccc2)c2cc(Cl)ccc2N1C1CCNCC1 | MID |

Which K2 band matches `CC(=O)N1CCC(N2C(=O)CN=C(c3ccccc3)c3ccccc32)CC1` ?
HIGH

Record: `O=C1CN=C(c2ccccc2F)c2ccccc2N1C1CCNCC1`
LOW

Record: `O=C1CN=C(c2ccccc2F)c2cc(F)ccc2N1C1CCNCC1`
LOW

Record: `CN1CCC(N2C(=O)CN=C(c3ccc(F)cc3)c3ccccc32)CC1`
HIGH

// provenance: ChEMBL document CHEMBL1123005
